- studyTarget: T1, Cc78 (Caulobacter crescentus NA1000, UniProt B8GW92 1-78, del79-82)
- T1 sequence: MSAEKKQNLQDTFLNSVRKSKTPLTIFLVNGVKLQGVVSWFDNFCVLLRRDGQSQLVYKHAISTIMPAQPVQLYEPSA
- assayDetails: EMSA; Hill n 1.6; EMSA: 34 mM Tris-HCl pH 7.5, 50 mM NaCl, 50 mM KCl, 50 mM NH4Cl, 11.4 mM EDTA, 12% glycerol, 30 C, 30 min, ~1 nM 32P-RNA, Kd in Hfq6; anisotropy: 10 mM Tris-HCl
- experimentalParameters: protein: recombinant; tags: untagged after self-cleaved intein; chain copies: 6; label: 32P; folded
endpointName: pKd
Scale: pKd equals -log10([C]), with [C] in mol/L.

The recorded pKd for entry RydC (structured_RNA) RNA: GGCUUCCGAUGUAGACCCGUAUUCUUCGCCUGUACCACGGGUCGGUUUUAGUACAGGCGUUUUCUU equals 6.78
